conditions: human
# Hepatotoxicity (granulomatous hepatitis) annotations
measuredProperty: Hepatotoxicity (granulomatous hepatitis)

[[record]]
compound = "CN(C)CCCN1c2ccccc2Sc2ccccc21"
endpointvalue = 0

[[record]]
compound = "CNCCON=c1c2ccccc2ccc2ccccc12"
endpointvalue = 0

[[record]]
compound = "COc1ccc(C(=O)Nc2ccccc2CCC2CCCCN2C)cc1 (stereo not drawn) [ENCAINIDE]"
endpointvalue = 0

[[record]]
compound = "NN [HYDRAZINE]"
endpointvalue = 0

[[record]]
compound = "Fc1ccc(C(c2ccc(F)cc2)N2CCN(C/C=C/c3ccccc3)CC2)cc1"
endpointvalue = 0

[[record]]
compound = "Cc1cnc(C(=O)NCCc2ccc(S(=O)(=O)NC(=O)NC3CCCCC3)cc2)cn1 [GLIPIZIDE]"
endpointvalue = 0

[[record]]
compound = "CCNC(=O)[C@@H]1CCCN1C(=O)[C@H](CCCNC(=N)N)NC(=O)[C@H](CC(C)C)NC(=O)[C@@H](CC(C)C)NC(=O)[C@H](Cc1ccc(O)cc1)NC(=O)[C@H](CO)NC(=O)[C@H](Cc1c[nH]c2ccccc12)NC(=O)[C@H](Cc1c[nH]cn1)NC(=O)[C@@H]1CCC(=O)N1 [LEUPROLIDE]"
endpointvalue = 0

[[record]]
compound = "N=C(N)c1ccc(/C=C/c2ccc(C(=N)N)cc2)cc1"
endpointvalue = 0


###

# Hepatotoxicity (choleostasis) annotations
details: human
measuredProperty: Hepatotoxicity (choleostasis)

[[record]]
compound = "C[C@H](O)C(=O)Nc1c(I)c(C(=O)NC(CO)CO)c(I)c(C(=O)NC(CO)CO)c1I [IOPAMIDOL]"
endpointvalue = 0

[[record]]
compound = "O=C(O)COCCN1CCN(C(c2ccccc2)c2ccc(Cl)cc2)CC1 (stereo not drawn) [CETIRIZINE]"
endpointvalue = 1

[[record]]
compound = "C[C@H]1COc2c(N3CCN(C)CC3)c(F)cc3c(=O)c(C(=O)O)cn1c23.C[C@H]1COc2c(N3CCN(C)CC3)c(F)cc3c(=O)c(C(=O)O)cn1c23.O [LEVOFLOXACIN]"
endpointvalue = 2

[[record]]
compound = "O=C(CCOCCOCCOCCOCCC(=O)Nc1c(I)cc(I)c(C(=O)O)c1I)Nc1c(I)cc(I)c(C(=O)O)c1I [IODOXAMIC ACID]"
endpointvalue = 0

[[record]]
compound = "CSc1ccc(C(=O)c2[nH]c(=O)[nH]c2C)cc1 [ENOXIMONE]"
endpointvalue = 0

[[record]]
compound = "O=C1Nc2ccc(Cl)cc2C(c2ccccc2Cl)=NC1O (stereo not drawn) [LORAZEPAM]"
endpointvalue = 0

[[record]]
compound = "NCC1(CC(=O)O)CCCCC1 [GABAPENTIN]"
endpointvalue = 3

[[record]]
compound = "CC[C@H]1[C@@H]2C[C@H]3[C@@H]4N(C)c5ccccc5[C@]45C[C@@H]([C@@H]2[C@H]5O)N3[C@@H]1O [AJMALINE]"
endpointvalue = 28


###

conditions: human, serum
measuredProperty: Hepatotoxicity (acute)

[[record]]
compound = "CC(=O)Nc1cc([As](=O)(O)O)ccc1O [ACETARSONE]"
measuredproperty = "Hepatotoxicity (acute)"
endpointvalue = 2

[[record]]
compound = "NCC1CC(=O)N(Cc2ccccc2)C1 (centres undefined) [NEBRACETAM]"
measuredproperty = "Hepatotoxicity (acute)"
endpointvalue = 0

[[record]]
compound = "CN1Cc2c(N)cccc2C(c2ccccc2)C1 (centres undefined) [NOMIFENSINE]"
measuredproperty = "Hepatotoxicity (acute)"
endpointvalue = 11

[[record]]
compound = "O=C(Nc1cccc2c(=O)cc(-c3nnn[nH]3)oc12)c1ccc(OCCCCc2ccccc2)cc1"
measuredproperty = "Hepatotoxicity (acute)"
endpointvalue = 0

[[record]]
compound = "CCn1cc(C(=O)O)c(=O)c2cc(F)c(N3CCN(C)CC3)cc21 [PEFLOXACIN]"
measuredproperty = "Hepatotoxicity (acute)"
endpointvalue = 0

[[record]]
compound = "CN1c2ccccc2C(NCCCCCCC(=O)O)c2ccc(Cl)cc2S1(=O)=O (centres undefined) [TIANEPTINE]"
measuredproperty = "Hepatotoxicity (acute)"
endpointvalue = 4

[[record]]
compound = "Cc1cccc(Nc2cc(Cl)nc(SCC(=O)NCCO)n2)c1C [PIRINIXIL]"
measuredproperty = "Hepatotoxicity (acute)"
endpointvalue = 0

[[record]]
compound = "C[C@@H](O)[C@H]1C(=O)N2C(C(=O)[O-])=C(SC3Cn4cnc[n+]4C3)[C@H](C)[C@H]12 (some centres undefined) [BIAPENEM]"
measuredproperty = "Hepatotoxicity (acute)"
endpointvalue = 0

[[record]]
compound = "O=C(O)CCNC(=O)c1ccc(/N=N/c2ccc(O)c(C(=O)O)c2)cc1 [BALSALAZIDE]"
measuredproperty = "Hepatotoxicity (acute)"
endpointvalue = 1

[[record]]
compound = "[N-]=[N+]=O [NITROUS OXIDE]"
measuredproperty = "Hepatotoxicity (acute)"
endpointvalue = 1

[[record]]
compound = "C[C@H](CSC(=O)c1ccccc1)C(=O)N1C[C@@H](Sc2ccccc2)C[C@H]1C(=O)O [ZOFENOPRIL]"
measuredproperty = "Hepatotoxicity (acute)"
endpointvalue = 0

[[record]]
compound = "CC(=O)N[C@H]1[C@H]([C@H](O)[C@H](O)CO)OC(C(=O)O)=C[C@@H]1N=C(N)N [ZANAMIVIR]"
measuredproperty = "Hepatotoxicity (acute)"
endpointvalue = 0

[[record]]
compound = "CC(=O)OCC1=C(C(=O)O)N2C(=O)[C@@H](NC(=O)CC#N)[C@H]2SC1"
measuredproperty = "Hepatotoxicity (acute)"
endpointvalue = 0

[[record]]
compound = "CCCN1CCO[C@@H]2c3cc(O)ccc3CC[C@H]21 [NAXAGOLIDE]"
measuredproperty = "Hepatotoxicity (acute)"
endpointvalue = 0

[[record]]
compound = "Oc1ncnc2[nH]ncc12 [ALLOPURINOL]"
measuredproperty = "Hepatotoxicity (acute)"
endpointvalue = 47

[[record]]
compound = "O=C(O[C@@H]1C[C@@H]2C[C@H]3C[C@H](C1)N2CC3=O)c1c[nH]c2ccccc12 [DOLASETRON]"
measuredproperty = "Hepatotoxicity (acute)"
endpointvalue = 0

[[record]]
compound = "CN1CCN(C(=S)Nc2ccc(Nc3ccc([N+](=O)[O-])cc3)cc2)CC1 [AMOCARZINE]"
measuredproperty = "Hepatotoxicity (acute)"
endpointvalue = 0

[[record]]
compound = "CN1CCN(C2=Nc3ccccc3Oc3ccc(Cl)cc32)CC1 [LOXAPINE]"
measuredproperty = "Hepatotoxicity (acute)"
endpointvalue = 1

[[record]]
compound = "Cc1onc(-c2c(Cl)cccc2Cl)c1C(=O)N[C@@H]1C(=O)N2[C@@H]1SC(C)(C)[C@@H]2C(=O)O [DICLOXACILLIN]"
measuredproperty = "Hepatotoxicity (acute)"
endpointvalue = 4


###

# Hepatotoxicity (granulomatous hepatitis) annotations
details: human
measuredProperty: Hepatotoxicity (granulomatous hepatitis)

[[record]]
molecule = "CC1(C)S[C@@H]2[C@H](NC(=O)[C@H](C(=O)O)c3ccsc3)C(=O)N2[C@H]1C(=O)O"
measuredproperty = "Hepatotoxicity (granulomatous hepatitis)"
endpointvalue = 0

[[record]]
molecule = "Cc1ccc(O)c2ncccc12"
measuredproperty = "Hepatotoxicity (granulomatous hepatitis)"
endpointvalue = 1

[[record]]
molecule = "Nc1ccc(S(N)(=O)=O)cc1 [SULFANILAMIDE]"
measuredproperty = "Hepatotoxicity (granulomatous hepatitis)"
endpointvalue = 0

[[record]]
molecule = "CN1c2c(oc(=O)n(-c3ccccn3)c2=O)-c2ccccc2S1(=O)=O"
measuredproperty = "Hepatotoxicity (granulomatous hepatitis)"
endpointvalue = 1

[[record]]
molecule = "CCc1oc2ccccc2c1C(=O)c1cc(Br)c(O)c(Br)c1"
measuredproperty = "Hepatotoxicity (granulomatous hepatitis)"
endpointvalue = 0


###

details: human
measuredProperty: Hepatotoxicity (severe hepatitis)

[[record]]
compound = "c1cnc(N2CCN(Cc3ccc4c(c3)OCO4)CC2)nc1 [PIRIBEDIL]"
measuredproperty = "Hepatotoxicity (severe hepatitis)"
endpointvalue = 0

[[record]]
compound = "CCOC(=O)NNc1nncc2ccccc12 [TODRALAZINE]"
measuredproperty = "Hepatotoxicity (severe hepatitis)"
endpointvalue = 2

[[record]]
compound = "Cc1ccc(Cl)c(Nc2ccccc2C(=O)O)c1Cl [MECLOFENAMIC ACID]"
measuredproperty = "Hepatotoxicity (severe hepatitis)"
endpointvalue = 0

[[record]]
compound = "CCCCCCCCCCC[C@@H](C[C@@H]1OC(=O)[C@H]1CCCCCC)OC(=O)[C@H](CC(C)C)NC=O [ORLISTAT]"
measuredproperty = "Hepatotoxicity (severe hepatitis)"
endpointvalue = 1

[[record]]
compound = "CCCCC(C)(O)C/C=C/[C@H]1[C@H](O)CC(=O)[C@@H]1CCCCCCCO (some centres undefined) [RIOPROSTIL]"
measuredproperty = "Hepatotoxicity (severe hepatitis)"
endpointvalue = 0

[[record]]
compound = "CC(C)(Oc1ccc(Cl)cc1)C(=O)NC(=O)NCN1CCOCC1 [PLAFIBRIDE]"
measuredproperty = "Hepatotoxicity (severe hepatitis)"
endpointvalue = 0

[[record]]
compound = "CC(C)(O/N=C(\\C(=O)N[C@@H]1C(=O)N2C(C(=O)[O-])=C(C[n+]3ccccc3)CS[C@H]12)c1csc(N)n1)C(=O)O [CEFTAZIDIME]"
measuredproperty = "Hepatotoxicity (severe hepatitis)"
endpointvalue = 0

[[record]]
compound = "O=C1CN2Cc3c(ccc(Cl)c3Cl)N=C2N1 [ANAGRELIDE]"
measuredproperty = "Hepatotoxicity (severe hepatitis)"
endpointvalue = 0

[[record]]
compound = "CCCC(C)C1(CC)C(=O)NC(=S)NC1=O (centres undefined) [THIOPENTAL]"
measuredproperty = "Hepatotoxicity (severe hepatitis)"
endpointvalue = 0

